Below, each of the compounds is paired with its reported GI50 value.
Tested on: SK-MEL-28
assayProcedure: NCI tumour cell line growth inhibition, 48 h
Activity calls are given as the source filed them. Cut-off read from the data, not from the text of the source: active = GI50 up to about 1.1 µM and inactive = higher.

- compound: "Cc1ccc(N/C(Sc2ccccc2)=C(/C(Cl)=C(Cl)Cl)[N+](=O)[O-])c(C)c1"
  experimentalSystem: "SK-MEL-28"
  GI50: "18.5 µM (inactive)"
- compound: "O=C(N/N=C/c1ccc([N+](=O)[O-])cc1)Nc1ccc(C(=O)O)cc1"
  experimentalSystem: "SK-MEL-28"
  GI50: "41.7 µM (inactive)"
- compound: "CCOc1cccc2sc(N)nc12"
  experimentalSystem: "SK-MEL-28"
  GI50: "> 100 µM (inactive)"
- compound: "CCCCC(O)(c1ccccc1)C(O)(c1ccccc1)c1c(F)c(F)c(F)c(F)c1F (stereo not given)"
  experimentalSystem: "SK-MEL-28"
  GI50: "27 µM (inactive)"
- compound: "C=CCN(C(C)=O)c1cc(OCc2ccccc2)c2c(c1)c(C)cn2S(=O)(=O)c1ccccc1"
  experimentalSystem: "SK-MEL-28"
  GI50: "21.2 µM (inactive)"

From: ChEMBL document CHEMBL1201862
